Where do the numbers come from? From patent US20240360126A1.

# system.tested: TLR9 (Homo sapiens, UniProt Q9NR96)
# Sequence (Q9NR96 26-1032): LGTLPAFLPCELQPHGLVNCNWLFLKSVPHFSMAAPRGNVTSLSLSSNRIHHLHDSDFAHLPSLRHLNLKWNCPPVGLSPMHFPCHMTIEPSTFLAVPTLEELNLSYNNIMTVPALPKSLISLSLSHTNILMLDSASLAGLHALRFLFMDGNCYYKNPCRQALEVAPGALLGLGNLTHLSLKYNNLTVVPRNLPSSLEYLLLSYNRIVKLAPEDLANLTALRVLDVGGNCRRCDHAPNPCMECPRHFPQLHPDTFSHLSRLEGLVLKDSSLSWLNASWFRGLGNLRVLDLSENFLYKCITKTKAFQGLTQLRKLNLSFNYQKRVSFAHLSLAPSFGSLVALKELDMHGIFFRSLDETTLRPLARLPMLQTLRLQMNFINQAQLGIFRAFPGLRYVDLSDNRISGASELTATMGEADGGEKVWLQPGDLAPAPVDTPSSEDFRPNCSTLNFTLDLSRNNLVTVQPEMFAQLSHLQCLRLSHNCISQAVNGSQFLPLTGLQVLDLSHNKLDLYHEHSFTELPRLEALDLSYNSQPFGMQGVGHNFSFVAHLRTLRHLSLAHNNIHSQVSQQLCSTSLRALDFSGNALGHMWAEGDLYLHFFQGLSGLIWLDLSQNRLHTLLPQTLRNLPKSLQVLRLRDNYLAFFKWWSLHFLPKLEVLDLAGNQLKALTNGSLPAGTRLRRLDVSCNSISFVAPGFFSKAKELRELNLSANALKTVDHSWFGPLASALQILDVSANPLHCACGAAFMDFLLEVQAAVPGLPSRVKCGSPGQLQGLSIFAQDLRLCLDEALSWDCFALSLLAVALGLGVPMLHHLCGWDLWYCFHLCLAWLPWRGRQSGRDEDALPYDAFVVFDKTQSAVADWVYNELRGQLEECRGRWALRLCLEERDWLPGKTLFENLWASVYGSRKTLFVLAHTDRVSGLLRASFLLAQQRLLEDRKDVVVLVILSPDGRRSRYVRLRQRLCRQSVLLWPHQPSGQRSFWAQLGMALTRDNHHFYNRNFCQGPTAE
# experimental.protocol: HEK293-Blue-hTLR-9 cells assay
# Assay type: cell-based
# Parameters: host or cells: HEK293 (HEK-Blue hTLR9)
# test.parameters: HEK293-Blue-hTLR9 cells, ODN2006 stimulation, 20 hrs; read-out: HEK/hTLR9 IC50
Provide the reported IC50 of each item.
Respond with the bare value in nM.

Ask: Enter IC50 (test system TLR9 (Homo sapiens, UniProt Q9NR96)) for Cc1cc(N2CCC(c3ccc(N4CCNCC4)cc3)CC2)c2cnn(C)c2n1
Reply: 275

Ask: Report its IC50 with TLR9 (Homo sapiens, UniProt Q9NR96) as the test system: Cc1cc(N2CC[C@H](c3ccc(N4CCOC[C@@H](N)C4)cn3)[C@@H](C)C2)c2cnn(C)c2n1
Reply: 173

Ask: Tell me its IC50 on TLR9 (Homo sapiens, UniProt Q9NR96): Cc1cc(N2CCC(c3cnc(N4CCNCC4)cc3C)CC2)c2cnn(C)c2n1
Reply: 195

Ask: Report its IC50 with TLR9 (Homo sapiens, UniProt Q9NR96) as the test system: Cc1cc(N2CCC(c3ccc(N4CCNCC4)nc3C)CC2)c2cnn(C)c2n1
Reply: 212

Ask: Return reported IC50 for target or system TLR9 (Homo sapiens, UniProt Q9NR96), item CO[C@@H]1CN(c2cnc([C@@H]3CCN(c4cc(C)nc5c4cnn5C)C[C@H]3C)c(C)c2)C[C@H]1N .
Reply: 109

Ask: Give IC50 for this entry on TLR9 (Homo sapiens, UniProt Q9NR96): Cc1cc(N2CCC(c3ncc(N4CCNCC4)cc3C)[C@H](C)C2)c2cnn(C)c2n1 (single isomer, unassigned) [Example 25]
Reply: 98

Ask: State, for TLR9 (Homo sapiens, UniProt Q9NR96), measured IC50 of the compound listed here: Cc1cc(N2CCNCC2)cnc1C1CCN(c2ccnc3c2cnn3C)CC1
Reply: 364

Ask: Consider the compound CCc1cc(N2CCNCC2)cnc1C1CCN(c2cc(C)nc3c2cnn3C)CC1 tested on TLR9 (Homo sapiens, UniProt Q9NR96); state its IC50.
Reply: 168

Ask: With TLR9 (Homo sapiens, UniProt Q9NR96) as the test system, provide measured IC50 for this compound: Cc1cc(N2CC[C@@H](c3ncc(N4CC5(CNCCO5)C4)cc3C)[C@H](C)C2)c2cnn(C)c2n1
Reply: 184

Ask: Give the observed IC50 of Cc1cc(N2CCC(c3ncc(N4CC[C@@H](N)[C@@H](F)C4)cc3C)CC2)c2cnn(C)c2n1 for TLR9 (Homo sapiens, UniProt Q9NR96).
Reply: 130

Ask: Find the measured IC50 of Cc1cc(N2CC[C@H](c3ccc(N4CC(C)(N)C4)cn3)[C@@H](C)C2)c2cnn(C)c2n1 with TLR9 (Homo sapiens, UniProt Q9NR96) as test system.
Reply: 203

Ask: Answer with IC50 of Cc1cc(N2CC[C@@H](c3ncc(N4CC(C)(N)C4)cc3C)[C@H](C)C2)c2cnn(C)c2n1 measured for TLR9 (Homo sapiens, UniProt Q9NR96).
Reply: 186

Ask: Provide measured IC50 on TLR9 (Homo sapiens, UniProt Q9NR96) for CO[C@@H]1CN(c2ccc([C@H]3CCN(c4cc(C)nc5c4cnn5C)C[C@@H]3C)nc2)C[C@H]1N please.
Reply: 170

Ask: Check TLR9 (Homo sapiens, UniProt Q9NR96) data and give IC50 for COc1cc(N2CCNCC2)cnc1C1CCN(c2cc(C)nc3c2cnn3C)CC1 .
Reply: 225

Ask: Given CO[C@H]1CN(c2ccc([C@H]3CCN(c4cc(C)nc5c4cnn5C)C[C@@H]3C)nc2)CC[C@@H]1N , report its IC50 on TLR9 (Homo sapiens, UniProt Q9NR96).
Reply: 211

Ask: Param request: IC50 | system TLR9 (Homo sapiens, UniProt Q9NR96) | item Cc1cc(N2CC[C@H](c3ccc(N4CC5(CNCCO5)C4)cn3)[C@@H](C)C2)c2cnn(C)c2n1
Reply: 192

Ask: Provide IC50, tested on TLR9 (Homo sapiens, UniProt Q9NR96), for Cc1cc(N2CCNCC2)ncc1C1CCN(c2ccnc3c2cnn3C)CC1 .
Reply: 208

Ask: State measured IC50 of the compound COC[C@H]1CN(c2cnc([C@@H]3CCN(c4cc(C)nc5c4cnn5C)C[C@H]3C)c(C)c2)CCN1 with TLR9 (Homo sapiens, UniProt Q9NR96).
Reply: 238

Ask: Answer with IC50 of Cc1cc(N2CCC(c3ncc(N4CCNCC4)cc3C)[C@H](C)C2)c2cnn(C)c2n1 (single isomer, unassigned) [Example 24] measured for TLR9 (Homo sapiens, UniProt Q9NR96).
Reply: 76

Ask: Enter IC50 (test system TLR9 (Homo sapiens, UniProt Q9NR96)) for COC[C@H]1CN(c2cnc(C3CCN(c4cc(C)nc5c4cnn5C)CC3)c(C)c2)CCN1
Reply: 143

Ask: Tell me IC50 of Cc1cc(N2CC[C@H](c3ccc(N4CCNCC4)cn3)[C@@H](C)C2)c2cnn(C)c2n1 when tested on TLR9 (Homo sapiens, UniProt Q9NR96).
Reply: 158

Ask: Using TLR9 (Homo sapiens, UniProt Q9NR96) as the test system, report measured IC50 of Cc1cc(N2CCC(c3cnc(N4CCNCC4)cn3)CC2)c2cnn(C)c2n1 .
Reply: 124

Ask: Tell me IC50 of Cc1cc(N2CC[C@@H](c3ncc(N4CC[C@@H](N)[C@H](F)C4)cc3C)[C@H](C)C2)c2cnn(C)c2n1 when tested on TLR9 (Homo sapiens, UniProt Q9NR96).
Reply: 219

Ask: Provide IC50, tested on TLR9 (Homo sapiens, UniProt Q9NR96), for Cc1cc(N2CCC(c3ncc(N4CCNCC4)cc3C)CC2)c2cnn(C)c2n1 .
Reply: 52

Ask: // fetch IC50; item: Cc1cc(N2CC[C@@H](c3ncc(N4CCOC[C@@H](N)C4)cc3C)[C@H](C)C2)c2cnn(C)c2n1 ; system: TLR9 (Homo sapiens, UniProt Q9NR96)
Reply: 126

Ask: GET IC50 where system = TLR9 (Homo sapiens, UniProt Q9NR96) and item = Cc1cc(N2CCC(c3cc(C)c(N4CCNCC4)cn3)CC2)c2cnn(C)c2n1
Reply: 120

Ask: Return reported IC50 for target or system TLR9 (Homo sapiens, UniProt Q9NR96), item Cc1cc(N2CC[C@@H](c3ncc(N4C[C@H]5NCCO[C@@H]5C4)cc3C)[C@H](C)C2)c2cnn(C)c2n1 .
Reply: 79

Ask: With TLR9 (Homo sapiens, UniProt Q9NR96) as the test system, provide measured IC50 for this compound: Cc1cc(N2CC[C@H](c3ccc(N4CC[C@@H](N)[C@H](F)C4)cn3)[C@@H](C)C2)c2cnn(C)c2n1
Reply: 231

Ask: State measured IC50 of the compound Cc1cc(N2CCC(c3ncc(N4CCNCC4)nc3C)[C@H](C)C2)c2cnn(C)c2n1 (single isomer, unassigned) [Example 22] with TLR9 (Homo sapiens, UniProt Q9NR96).
Reply: 315

Ask: Recall the reported IC50 of Cc1cc(N2CCC(c3cnc(N4CCNCC4)cc3C)[C@H](C)C2)c2cnn(C)c2n1 (single isomer, unassigned) [Example 20] when tested on TLR9 (Homo sapiens, UniProt Q9NR96).
Reply: 220

----------
# system.tested: human TLR8 (Homo sapiens, UniProt Q9NR97)
# Sequence (Q9NR97 27-1041): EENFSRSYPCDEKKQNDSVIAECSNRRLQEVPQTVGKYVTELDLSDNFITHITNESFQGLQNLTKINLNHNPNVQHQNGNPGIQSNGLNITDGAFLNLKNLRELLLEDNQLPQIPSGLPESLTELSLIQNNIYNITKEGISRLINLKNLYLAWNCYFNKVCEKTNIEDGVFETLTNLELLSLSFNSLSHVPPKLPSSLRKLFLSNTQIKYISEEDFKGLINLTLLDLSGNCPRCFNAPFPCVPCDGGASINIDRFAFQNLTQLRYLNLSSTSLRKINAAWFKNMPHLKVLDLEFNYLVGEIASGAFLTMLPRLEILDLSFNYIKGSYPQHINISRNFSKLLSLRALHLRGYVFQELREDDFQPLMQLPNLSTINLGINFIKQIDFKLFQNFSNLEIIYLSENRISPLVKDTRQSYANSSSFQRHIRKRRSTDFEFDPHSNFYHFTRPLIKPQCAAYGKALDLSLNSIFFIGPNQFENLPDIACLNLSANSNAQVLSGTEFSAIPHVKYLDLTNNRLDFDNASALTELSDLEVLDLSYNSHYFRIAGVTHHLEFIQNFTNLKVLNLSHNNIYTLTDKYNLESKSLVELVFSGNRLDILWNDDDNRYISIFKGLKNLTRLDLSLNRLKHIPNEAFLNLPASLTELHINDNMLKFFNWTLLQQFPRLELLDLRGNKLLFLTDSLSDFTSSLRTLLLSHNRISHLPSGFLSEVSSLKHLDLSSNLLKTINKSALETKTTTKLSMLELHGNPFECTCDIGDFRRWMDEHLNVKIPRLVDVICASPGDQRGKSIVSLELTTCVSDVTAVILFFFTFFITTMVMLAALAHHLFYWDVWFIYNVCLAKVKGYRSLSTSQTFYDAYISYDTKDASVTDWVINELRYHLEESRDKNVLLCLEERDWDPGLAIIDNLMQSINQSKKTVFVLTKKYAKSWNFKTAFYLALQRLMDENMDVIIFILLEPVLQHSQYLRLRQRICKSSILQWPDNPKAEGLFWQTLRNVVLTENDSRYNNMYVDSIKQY
# experimental.protocol: HEK293-Blue-hTLR-8 cells assay
# test.parameters: HEK293-Blue-hTLR8 cells, R848 stimulation, 20 hrs; read-out: HEK/hTLR8 IC50
metric.name: IC50 (nM)
Report as a plain number; the unit nM is understood.

Ask: Return reported IC50 for target or system human TLR8 (Homo sapiens, UniProt Q9NR97), item COC[C@H]1CN(c2ccc([C@H]3CCN(c4cc(C)nc5c4cnn5C)C[C@@H]3C)nc2)CCN1 [Example 37] .
Reply: 13

Ask: With human TLR8 (Homo sapiens, UniProt Q9NR97) as the test system, provide measured IC50 for this compound: Cc1cc(N2CC[C@@H](c3ccc(N4CCNCC4)cn3)[C@H](C)C2)c2cnn(C)c2n1 [Example 34]
Reply: 11

Ask: Specify the recorded IC50 for CO[C@H]1CN(c2cnc(C3CCN(c4cc(C)nc5c4cnn5C)CC3)c(C)c2)CC[C@@H]1N [Example 17] , system: human TLR8 (Homo sapiens, UniProt Q9NR97).
Reply: 39

Ask: // output IC50; input Cc1cc(N2CCC(c3ncc(N4CCNCC4)cc3C)CC2)c2cnn(C)c2n1 [Example 7] ; system human TLR8 (Homo sapiens, UniProt Q9NR97)
Reply: 29

Ask: Given Cc1cc(N2CCC(c3ncc(N4CCNCC4)cn3)CC2)c2cnn(C)c2n1 [Example 4] , report its IC50 on human TLR8 (Homo sapiens, UniProt Q9NR97).
Reply: 59

Ask: Look up human TLR8 (Homo sapiens, UniProt Q9NR97) data: IC50 of Cc1cc(N2CC[C@H](c3ccc(N4CC[C@@H](N)[C@H](F)C4)cn3)[C@@H](C)C2)c2cnn(C)c2n1 [Example 41] , then report it.
Reply: 10

Ask: Please respond with reported IC50 (system human TLR8 (Homo sapiens, UniProt Q9NR97)) for Cc1cc(N2CCC(c3ccc(N4CCNCC4)nc3C)CC2)c2cnn(C)c2n1 [Example 10] .
Reply: 13

Ask: Using human TLR8 (Homo sapiens, UniProt Q9NR97) as the test system, report measured IC50 of Cc1cc(N2CC[C@@H](c3ncc(N4CCOC[C@@H](N)C4)cc3C)[C@H](C)C2)c2cnn(C)c2n1 [Example 28] .
Reply: 2
